Target: T1, rat collagen, acid soluble, type I, rat tail (Upstate 08-115) (rat, UniProt P02454 152-1207; P02466 86-1125)
T1 construct: tissue extract, gelled and dried in wells; also called dried rat collagen
T1 sequence (P02454 152-1207, chain 1 of 2): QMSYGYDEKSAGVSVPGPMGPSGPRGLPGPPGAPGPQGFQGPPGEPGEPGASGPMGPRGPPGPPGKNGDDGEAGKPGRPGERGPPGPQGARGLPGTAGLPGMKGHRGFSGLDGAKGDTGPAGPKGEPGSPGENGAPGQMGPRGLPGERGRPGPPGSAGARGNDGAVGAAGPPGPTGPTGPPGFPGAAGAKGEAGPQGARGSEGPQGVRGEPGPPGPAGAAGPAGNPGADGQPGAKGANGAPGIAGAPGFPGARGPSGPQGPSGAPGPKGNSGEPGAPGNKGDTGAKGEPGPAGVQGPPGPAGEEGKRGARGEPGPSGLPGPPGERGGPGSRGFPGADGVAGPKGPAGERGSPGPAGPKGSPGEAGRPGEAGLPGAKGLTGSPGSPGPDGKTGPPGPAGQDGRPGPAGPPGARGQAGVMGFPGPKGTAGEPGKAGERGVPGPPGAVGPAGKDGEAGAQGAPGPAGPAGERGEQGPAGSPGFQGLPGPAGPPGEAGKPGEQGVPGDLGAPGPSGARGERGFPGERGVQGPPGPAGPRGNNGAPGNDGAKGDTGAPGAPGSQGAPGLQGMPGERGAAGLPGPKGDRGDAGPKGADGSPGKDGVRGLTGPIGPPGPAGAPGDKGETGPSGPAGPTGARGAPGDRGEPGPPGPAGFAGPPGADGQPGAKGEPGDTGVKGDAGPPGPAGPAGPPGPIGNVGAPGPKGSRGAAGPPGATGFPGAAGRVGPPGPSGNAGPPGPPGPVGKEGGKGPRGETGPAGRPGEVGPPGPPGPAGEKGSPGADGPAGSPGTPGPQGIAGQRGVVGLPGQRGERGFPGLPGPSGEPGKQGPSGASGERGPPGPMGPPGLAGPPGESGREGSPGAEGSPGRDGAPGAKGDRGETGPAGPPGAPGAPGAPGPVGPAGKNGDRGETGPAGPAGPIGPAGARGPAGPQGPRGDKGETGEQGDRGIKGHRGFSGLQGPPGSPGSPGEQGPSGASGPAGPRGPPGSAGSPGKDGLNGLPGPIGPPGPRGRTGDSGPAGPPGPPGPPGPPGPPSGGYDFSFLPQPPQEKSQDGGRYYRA
T1 sequence (P02466 86-1125, chain 2 of 2): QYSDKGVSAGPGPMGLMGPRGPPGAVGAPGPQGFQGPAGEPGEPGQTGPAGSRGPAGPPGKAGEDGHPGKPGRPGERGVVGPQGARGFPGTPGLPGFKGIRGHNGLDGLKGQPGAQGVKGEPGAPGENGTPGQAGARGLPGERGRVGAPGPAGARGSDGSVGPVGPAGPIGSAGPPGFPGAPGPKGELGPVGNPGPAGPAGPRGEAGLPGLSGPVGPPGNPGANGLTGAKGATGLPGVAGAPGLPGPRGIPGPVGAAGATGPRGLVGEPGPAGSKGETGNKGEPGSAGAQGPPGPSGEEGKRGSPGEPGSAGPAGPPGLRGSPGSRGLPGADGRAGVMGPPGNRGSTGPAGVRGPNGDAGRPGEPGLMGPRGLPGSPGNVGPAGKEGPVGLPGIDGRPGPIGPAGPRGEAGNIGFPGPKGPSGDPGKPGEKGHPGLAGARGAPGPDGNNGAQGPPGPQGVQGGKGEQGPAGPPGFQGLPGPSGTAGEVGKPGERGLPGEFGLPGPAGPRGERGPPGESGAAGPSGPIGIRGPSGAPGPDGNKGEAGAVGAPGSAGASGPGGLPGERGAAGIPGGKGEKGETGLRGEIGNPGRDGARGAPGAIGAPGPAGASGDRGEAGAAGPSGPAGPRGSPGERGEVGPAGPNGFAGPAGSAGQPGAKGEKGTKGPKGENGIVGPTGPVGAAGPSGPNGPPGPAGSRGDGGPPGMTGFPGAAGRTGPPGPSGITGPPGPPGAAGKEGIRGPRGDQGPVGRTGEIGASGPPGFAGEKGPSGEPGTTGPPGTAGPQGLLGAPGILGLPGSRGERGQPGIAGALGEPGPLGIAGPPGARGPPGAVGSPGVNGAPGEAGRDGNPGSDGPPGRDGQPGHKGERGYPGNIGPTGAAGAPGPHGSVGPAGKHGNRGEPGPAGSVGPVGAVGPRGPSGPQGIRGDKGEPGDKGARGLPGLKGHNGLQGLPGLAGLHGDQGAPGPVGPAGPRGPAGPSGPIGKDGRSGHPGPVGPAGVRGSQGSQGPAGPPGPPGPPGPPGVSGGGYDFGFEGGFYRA
Assay: dried collagen assay
Bridge positions count the residues as written; N and C are the ends. Square brackets hold non-standard residues; d marks the D form. Primed or numbered codes have the meaning given here. Ends that are not written are not given here. Gd^G = not defined here; Gd^T = not defined here; Gd^T″ = GdDTPA-thiourea; AEEA = NCCOCCOCC(=O)O
Mark class 1 for reported % bound of 30% or greater; mark class 0 for anything smaller.

Binder	Assigned Category
GQWHCTTYFPHHYCLYG-{AEEA-Gd^G} (disulfide 5-14 (inferred); reading uncertain, no N-terminal chelate printed) [Compound ID 874]	class 0
{Gd^T}-GQWHCTTDFPHHYCLYG (disulfide 5-14 (inferred); not fully specified (C-terminus); reading uncertain) [Compound ID 851]	class 1
{Gd^T}-GAWHCTTRFPHHYCLYG (disulfide 5-14 (inferred); not fully specified (C-terminus); reading uncertain) [Compound ID 857]	class 1
{Gd^T″}-GAWHCTTYFPHH[dY]CLYG (disulfide 5-14 (inferred); not fully specified (C-terminus)) [Compound ID 915]	class 0
